Starred links: 1 amine or outer side, 2 acyl side, 3 side chain; linkers in the order of their positions; H or OH if unused. Non-standard residues stand in square brackets, D forms with d. Residues, ends and D or L forms follow the SMILES beside them. X3 = N/C(=N\Cc1ccccc1)NCCC[C@H](N[*:1])C(=O)[*:2]; X4 = NC(NCCC[C@H](N[*:1])C(=O)[*:2])=[N+]1CCCC1
Form: system (Protein arginine N-methyltransferase 1 (Homo sapiens)), quantity (pKi), values below.
One number for each entry, as −log10 of the molar value.

N=C(N)NCCC[C@H](NC(=O)CN)C(=O)N[C@@H](CCCCN)C(=O)N[C@@H](CCCCN)C(=O)N[C@@H](CCCNC(N)=[N+]1CCCC1)C(=O)N[C@@H](CCCNC(=N)N)C(=O)N[C@@H](CCC(N)=O)C(=O)N[C@@H](CCCNC(=N)N)C(=O)N[C@@H](CCCNC(=N)N)C(=O)N[C@@H](CCCNC(=N)N)C(=O)N1CCC[C@H]1C(=O)N1CCC[C@H]1C(=O)N[C@@H](CCC(N)=O)C(=O)O (H-GRKK[X4]RQRRRPPQ-OH): 5.12

// batch mode: one pKi value per listed entry
1. N=C(N)NCCC[C@H](NC(=O)CN)C(=O)N[C@@H](CCCCN)C(=O)N[C@@H](CCCCN)C(=O)N[C@@H](CCCNC(=N)N)C(=O)N[C@@H](CCCNC(=N)N)C(=O)N[C@@H](CCC(N)=O)C(=O)N[C@@H](CCCNC(=N)N)C(=O)N[C@@H](CCCNC(=N)N)C(=O)N[C@@H](CCCNC(=N)N)C(=O)N1CCC[C@H]1C(=O)N1CCC[C@H]1C(=O)N[C@@H](CCC(N)=O)C(=O)O
2. CC/N=C(\N)NCCC[C@H](NC(=O)[C@H](CCCCN)NC(=O)[C@H](CCCCN)NC(=O)[C@H](CCCNC(=N)N)NC(=O)CN)C(=O)N[C@@H](CCCNC(=N)N)C(=O)N[C@@H](CCC(N)=O)C(=O)N[C@@H](CCCNC(=N)N)C(=O)N[C@@H](CCCNC(=N)N)C(=O)N[C@@H](CCCNC(=N)N)C(=O)N1CCC[C@H]1C(=O)N1CCC[C@H]1C(=O)N[C@@H](CCC(N)=O)C(=O)O
3. N=C(N)NCCC[C@H](NC(=O)CN)C(=O)N[C@@H](CCCCN)C(=O)N[C@@H](CCCCN)C(=O)N[C@@H](CCCN/C(N)=N/Cc1ccccc1)C(=O)N[C@@H](CCCNC(=N)N)C(=O)N[C@@H](CCC(N)=O)C(=O)N[C@@H](CCCNC(=N)N)C(=O)N[C@@H](CCCNC(=N)N)C(=O)N[C@@H](CCCNC(=N)N)C(=O)N1CCC[C@H]1C(=O)N1CCC[C@H]1C(=O)N[C@@H](CCC(N)=O)C(=O)O (H-GRKK[X3]RQRRRPPQ-OH)

1. 5.32
2. 5.37
3. 5.57

* * *

experimental-system: UniProtKB Q99873
test-protocol: Activity at PRMT1 (unknown origin) using [methyl-14C]AdoMet at 0.25 to 200 uM after 60 to 120 mins by tricine gel electrophoresis
Sequence (Q99873 whole entry, looked up): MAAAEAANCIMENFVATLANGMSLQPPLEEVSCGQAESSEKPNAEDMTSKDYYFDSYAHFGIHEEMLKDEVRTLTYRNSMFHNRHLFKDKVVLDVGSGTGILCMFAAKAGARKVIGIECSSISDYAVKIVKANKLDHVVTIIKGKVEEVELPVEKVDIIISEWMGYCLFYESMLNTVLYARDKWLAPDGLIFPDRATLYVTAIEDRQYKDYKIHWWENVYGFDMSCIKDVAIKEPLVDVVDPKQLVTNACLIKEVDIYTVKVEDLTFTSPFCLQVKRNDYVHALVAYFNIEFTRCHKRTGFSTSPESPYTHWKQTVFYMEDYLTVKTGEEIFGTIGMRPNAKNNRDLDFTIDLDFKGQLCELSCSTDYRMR
The source made the active and inactive calls. The calls are words filed in the database; no cut-off is given here. Starred links: 1 amine or outer side, 2 acyl side, 3 side chain; linkers in the order of their positions; H or OH if unused. Non-standard residues stand in square brackets, D forms with d. Residues, ends and D or L forms follow the SMILES beside them. X2 = N/C(=N\CC(F)(F)F)NCCC[C@H](N[*:1])C(=O)[*:2]; X5 = N/C(=N\C1CC1)NCCC[C@H](N[*:1])C(=O)[*:2]
parameter: Activity

N=C(N)NCCC[C@H](NC(=O)CN)C(=O)N[C@@H](CCCCN)C(=O)N[C@@H](CCCCN)C(=O)N[C@@H](CCCN/C(N)=N/C1CC1)C(=O)N[C@@H](CCCNC(=N)N)C(=O)N[C@@H](CCC(N)=O)C(=O)N[C@@H](CCCNC(=N)N)C(=O)N[C@@H](CCCNC(=N)N)C(=O)N[C@@H](CCCNC(=N)N)C(=O)N1CCC[C@H]1C(=O)N1CCC[C@H]1C(=O)N[C@@H](CCC(N)=O)C(=O)O (H-GRKK[X5]RQRRRPPQ-OH): Active
N=C(N)NCCC[C@H](NC(=O)CN)C(=O)N[C@@H](CCCCN)C(=O)N[C@@H](CCCCN)C(=O)N[C@@H](CCCNC(=N)N)C(=O)N[C@@H](CCCNC(=N)N)C(=O)N[C@@H](CCC(N)=O)C(=O)N[C@@H](CCCNC(=N)N)C(=O)N[C@@H](CCCNC(=N)N)C(=O)N[C@@H](CCCNC(=N)N)C(=O)N1CCC[C@H]1C(=O)N1CCC[C@H]1C(=O)N[C@@H](CCC(N)=O)C(=O)O: Active
N=C(N)NCCC[C@H](NC(=O)CN)C(=O)N[C@@H](CCCCN)C(=O)N[C@@H](CCCCN)C(=O)N[C@@H](CCCN/C(N)=N/CC(F)(F)F)C(=O)N[C@@H](CCCNC(=N)N)C(=O)N[C@@H](CCC(N)=O)C(=O)N[C@@H](CCCNC(=N)N)C(=O)N[C@@H](CCCNC(=N)N)C(=O)N[C@@H](CCCNC(=N)N)C(=O)N1CCC[C@H]1C(=O)N1CCC[C@H]1C(=O)N[C@@H](CCC(N)=O)C(=O)O (H-GRKK[X2]RQRRRPPQ-OH): Active
